Tested on: DNase I
Assay: Colorimetric DNase I inhibition assay, ligated gold nanoparticle aggregates with linker oligonucleotide (Example 2)
Format: biochemical
Conditions: inhibitor 1 μM, DNase I 15 units/ml, extinction at 520 nm, ligated aggregates; control 9.5 min
Measurement kind: t (releasing time; time required to hydrolyze 50% of the aggregates)

Molecular string: COc1cccc2c1C(=O)c1c(O)c3c(c(O)c1C2=O)C[C@@](O)(C(C)=O)C[C@@H]3O[C@H]1C[C@H](N)[C@H](O)[C@H](C)O1
Measured target: DNase I
Value reported: 31.5 min

Molecular string: N=C(N)c1ccc(-c2cc3ccc(C(=N)N)cc3[nH]2)cc1
Measured target: DNase I
Value reported: >1440 min

Molecular string: Cc1c2ccncc2c(C)c2c1[nH]c1ccccc12
Measured target: DNase I
Value reported: 15.0 min

## Task Note t (releasing time; time required to hydrolyze 50% of the aggregates) for the molecule shown: O=C(O)c1ccc2c(c1)C(=O)c1ccccc1C2=O
## Result 14.5 min

## Task Note t (releasing time; time required to hydrolyze 50% of the aggregates) for the molecule shown: Nc1c2ccccc2nc2ccccc12
## Result 16.0 min

* * *

# key: entry, value: Tm (melting temperature of duplex DNA in the presence of endonuclease inhibitor)
System: duplex DNA
Experiment: Melting temperature of duplex DNA (without nanoparticles) in the presence of DNA binding molecule
Conditions: Table 2; DNA duplex 2.0 μM, sodium phosphate buffer 10 mM pH 7.0, NaCl 100 mM, DNA binding molecule 5.0 μM, at 260 nm; control 61.0
// return numeric value only (unit: °C, not printed)

Some molecules with recorded Tm (melting temperature of duplex DNA in the presence of endonuclease inhibitor):
Molecule: COc1cccc2c1C(=O)c1c(O)c3c(c(O)c1C2=O)C[C@@](O)(C(C)=O)C[C@@H]3O[C@H]1C[C@H](N)[C@H](O)[C@H](C)O1 [DNR, daunorubicin]
Value reported: 65.5
//
Molecule: Nc1c2ccccc2nc2ccccc12 [9-AA, 9-aminoacridine]
Value reported: 62.5
//
Molecule: Cc1c2ccncc2c(C)c2c1[nH]c1ccccc12 [EIPT, ellipticine]
Value reported: 63.0
//
Molecule: N=C(N)c1ccc(-c2cc3ccc(C(=N)N)cc3[nH]2)cc1 [DAPI, 4′,6-diamidedino-2-phenylindole]
Value reported: 77.0

Below: the item to evaluate.
## Task Note Tm (melting temperature of duplex DNA in the presence of endonuclease inhibitor) for the molecule shown: O=C(O)c1ccc2c(c1)C(=O)c1ccccc1C2=O [AQ2A, anthraquinone-2-carboxylic acid]
## Result 62.5

* * *

System: DNase I
Assay: Colorimetric DNase I inhibition assay, hybridized gold nanoparticle aggregates without linker oligonucleotide (Example 1)
Format: biochemical
Conditions: inhibitor 1 μM, DNase I 15 units/ml, extinction at 520 nm, room temperature; control 6.8 min
Values of TH (time at which 50% of the aggregate is hydrolyzed by DNase I) greater than or equal to 30 min map to 1 (yes); values below map to 0 (no).

Example entries begin here.
Molecular string: N=C(N)c1ccc(-c2cc3ccc(C(=N)N)cc3[nH]2)cc1
Measured target: DNase I
Classification: 1 (yes)
//
Molecular string: O=C(O)c1ccc2c(c1)C(=O)c1ccccc1C2=O
Measured target: DNase I
Classification: 0 (no)
//
Molecular string: Nc1c2ccccc2nc2ccccc12
Measured target: DNase I
Classification: 0 (no)
//
Molecular string: Cc1c2ccncc2c(C)c2c1[nH]c1ccccc12
Measured target: DNase I
Classification: 0 (no)

Consider now this further compound.
## Task Check if TH (time at which 50% of the aggregate is hydrolyzed by DNase I) >= 30 min (inclusive). Item: COc1cccc2c1C(=O)c1c(O)c3c(c(O)c1C2=O)C[C@@](O)(C(C)=O)C[C@@H]3O[C@H]1C[C@H](N)[C@H](O)[C@H](C)O1
## Result 1 (yes)

* * *

# key: entry, value: Tm (melting temperature of duplex DNA in the presence of endonuclease inhibitor)
Tested on: duplex DNA
Experiment: Melting temperature of duplex DNA (without nanoparticles) in the presence of DNA binding molecule
Settings: Table 1; DNA duplex 2.0 μM, sodium phosphate buffer 10 mM pH 7.0, NaCl 100 mM, DNA binding molecule 5.0 μM; control 61.0

Some compounds with recorded Tm (melting temperature of duplex DNA in the presence of endonuclease inhibitor):
Molecular string: O=C(O)c1ccc2c(c1)C(=O)c1ccccc1C2=O
Value reported: 62.5 °C
//
Molecular string: Cc1c2ccncc2c(C)c2c1[nH]c1ccccc12
Value reported: 63.0 °C
//
Molecular string: N=C(N)c1ccc(-c2cc3ccc(C(=N)N)cc3[nH]2)cc1
Value reported: 77.0 °C

## Task Note Tm (melting temperature of duplex DNA in the presence of endonuclease inhibitor) for the compound shown: COc1cccc2c1C(=O)c1c(O)c3c(c(O)c1C2=O)C[C@@](O)(C(C)=O)C[C@@H]3O[C@H]1C[C@H](N)[C@H](O)[C@H](C)O1
## Result 65.5 °C

## Task Note Tm (melting temperature of duplex DNA in the presence of endonuclease inhibitor) for the compound shown: Nc1c2ccccc2nc2ccccc12
## Result 62.5 °C
